# assay.text: In vitro permeability assay in Caco-2 monolayers
# measurement.context: human, Caco-2
Answer each item with its documented Papp A→B at 120 min.

NC(=O)c1cnccn1 [PZA, pyrazinamide]
49.7 to 61 ×10⁻⁶ cm/s

Would you mind telling me what Papp A→B at 120 min value was observed for C[C@H]1COC2(CCN(c3nc(=O)c4cc(C(F)(F)F)cc([N+](=O)[O-])c4s3)CC2)O1 [BTZ-043] ?
9.44 to 11.3 ×10⁻⁶ cm/s

---

# assay.text: Impact of γ-irradiation on BTZ-043 in lung cryosections of treated mice (LC-MS/MS, MALDI imaging)
# measurement.context: BALB/c, mouse, 250 mg/kg/day, ng/mg lung cryosection, measurement 2, no gamma irradiation, 1h after BTZ administration, naïve BALB/c 250 mg/kg/day 5 days, single cryosection
property.name: concentration at 1 h (ng/g)
One number for each entry, in ng/g.

Would you mind telling me what concentration at 1 h value was observed for C[C@H]1COC2(CCN(c3nc(=O)c4cc(C(F)(F)F)cc([N+](=O)[O-])c4s3)CC2)O1 ?
1400
